Values compiled from patent US9540299B2.

- System: N2a cells
- Experiment Notes: LC3-II levels by western blot in N2a cells (autophagy induction)
- Format: cell-based, mouse
- Measurement Conditions: siAtg5 72 h then compound 12 h, curcumin 10 μM, analogs 1 μM
Quantity Kind: LC3-II levels in cells depleted of Atg5 by siRNA

Exercise: Quick one: LC3-II levels in cells depleted of Atg5 by siRNA for COc1ccccc1/C=C/C(=O)/C=C/c1ccccc1OC ?
Solution: failed to increase

Exercise: Quick one: LC3-II levels in cells depleted of Atg5 by siRNA for O=C(/C=C/c1cccc(C(F)(F)F)c1)/C=C/c1cccc(C(F)(F)F)c1 ?
Solution: failed to increase

Exercise: Quick one: LC3-II levels in cells depleted of Atg5 by siRNA for COc1cc(/C=C/C(=O)CC(=O)/C=C/c2ccc(O)c(OC)c2)ccc1O [curcumin, Curcumin, reference compound] ?
Solution: failed to increase

Exercise: Quick one: LC3-II levels in cells depleted of Atg5 by siRNA for O=C(/C=C/c1ccc(O)cc1)/C=C/c1ccc(O)cc1 ?
Solution: failed to increase

###

- Tested on: MTOR pathway
- Experiment Notes: Effects on MTOR pathway: phosphorylation by western blot in N2a cells
- Assay type: cell-based, mouse
- Measurement Conditions: 12 h, curcumin 10 μM, analogs 1 μM
Quantity Kind: phosphorylation of RPS6KB1/p70S6K, MTOR and AKT

Exercise: Quick one: phosphorylation of RPS6KB1/p70S6K, MTOR and AKT for O=C(/C=C/c1cccc(C(F)(F)F)c1)/C=C/c1cccc(C(F)(F)F)c1 [A2] ?
Solution: inhibit

Exercise: Quick one: phosphorylation of RPS6KB1/p70S6K, MTOR and AKT for COc1cc(/C=C/C(=O)CC(=O)/C=C/c2ccc(O)c(OC)c2)ccc1O [curcumin, Curcumin, reference compound] ?
Solution: inhibit

Exercise: Quick one: phosphorylation of RPS6KB1/p70S6K, MTOR and AKT for O=C(/C=C/c1ccc(O)cc1)/C=C/c1ccc(O)cc1 [B3] ?
Solution: inhibit

###

- Tgt: TFEB (Mus musculus, UniProt Q9R210)
- Construct: the expression and distribution of endogenous TFEB in N2a cells treated with curcumin and its analogs are determined; endogenous in cells; host or cells: N2a cells
- Sequence (Q9R210 whole entry): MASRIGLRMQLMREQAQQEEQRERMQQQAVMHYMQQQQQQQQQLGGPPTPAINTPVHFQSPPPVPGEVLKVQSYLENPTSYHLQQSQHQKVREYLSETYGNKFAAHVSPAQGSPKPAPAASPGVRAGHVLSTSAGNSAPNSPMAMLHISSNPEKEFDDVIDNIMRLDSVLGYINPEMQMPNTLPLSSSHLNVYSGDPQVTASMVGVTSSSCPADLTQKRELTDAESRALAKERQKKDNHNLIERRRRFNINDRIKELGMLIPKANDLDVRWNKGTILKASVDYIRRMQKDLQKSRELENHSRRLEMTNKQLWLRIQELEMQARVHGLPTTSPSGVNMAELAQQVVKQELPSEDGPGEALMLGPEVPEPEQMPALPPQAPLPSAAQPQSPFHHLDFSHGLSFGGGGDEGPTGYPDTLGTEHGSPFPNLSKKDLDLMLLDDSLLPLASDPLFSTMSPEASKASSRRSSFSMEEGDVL
- Experiment Notes: Expression and distribution of endogenous TFEB in N2a cells (immunostaining, western blot)
- Type: cell-based
- Measurement Conditions: N2a cells, 12 h; curcumin 10 μM, analogs 1 μM
- Experimental: Cells were treated with curcumin (Cur, 10 μM), A2, B3 and C1 (1 μM) for 12 h. […] Data is quantified by ImageJ software and is presented as mean±SD of three replicates for each treatment conditions. At least 1000 cells are analyzed in each treatment group. *p<0.05 vs. the control (0.1% DMSO). FIG. 4C is a western blot showing the expression of endogenous TFEB. […] FIG. 4E is fluorescence images showing expression of 3×Flag-TFEB in Hela cells having treated with Cur (10 μM), A2, B3 and C1 (1 μM) for 12 h. […]
Quantity Kind: total levels (expression) of endogenous TFEB

Exercise: Quick one: total levels (expression) of endogenous TFEB for COc1cc(/C=C/C(=O)CC(=O)/C=C/c2ccc(O)c(OC)c2)ccc1O [curcumin, Curcumin, reference compound] ?
Solution: no effects

Exercise: Quick one: total levels (expression) of endogenous TFEB for O=C(/C=C/c1cccc(C(F)(F)F)c1)/C=C/c1cccc(C(F)(F)F)c1 ?
Solution: no effects

Exercise: Quick one: total levels (expression) of endogenous TFEB for O=C(/C=C/c1ccc(O)cc1)/C=C/c1ccc(O)cc1 ?
Solution: no effects
